# systemName: hSCN3A sodium channels (Homo sapiens, UniProt Q9NY46)
# Construct: expressed in transfected cells
# Sequence (Q9NY46 whole entry): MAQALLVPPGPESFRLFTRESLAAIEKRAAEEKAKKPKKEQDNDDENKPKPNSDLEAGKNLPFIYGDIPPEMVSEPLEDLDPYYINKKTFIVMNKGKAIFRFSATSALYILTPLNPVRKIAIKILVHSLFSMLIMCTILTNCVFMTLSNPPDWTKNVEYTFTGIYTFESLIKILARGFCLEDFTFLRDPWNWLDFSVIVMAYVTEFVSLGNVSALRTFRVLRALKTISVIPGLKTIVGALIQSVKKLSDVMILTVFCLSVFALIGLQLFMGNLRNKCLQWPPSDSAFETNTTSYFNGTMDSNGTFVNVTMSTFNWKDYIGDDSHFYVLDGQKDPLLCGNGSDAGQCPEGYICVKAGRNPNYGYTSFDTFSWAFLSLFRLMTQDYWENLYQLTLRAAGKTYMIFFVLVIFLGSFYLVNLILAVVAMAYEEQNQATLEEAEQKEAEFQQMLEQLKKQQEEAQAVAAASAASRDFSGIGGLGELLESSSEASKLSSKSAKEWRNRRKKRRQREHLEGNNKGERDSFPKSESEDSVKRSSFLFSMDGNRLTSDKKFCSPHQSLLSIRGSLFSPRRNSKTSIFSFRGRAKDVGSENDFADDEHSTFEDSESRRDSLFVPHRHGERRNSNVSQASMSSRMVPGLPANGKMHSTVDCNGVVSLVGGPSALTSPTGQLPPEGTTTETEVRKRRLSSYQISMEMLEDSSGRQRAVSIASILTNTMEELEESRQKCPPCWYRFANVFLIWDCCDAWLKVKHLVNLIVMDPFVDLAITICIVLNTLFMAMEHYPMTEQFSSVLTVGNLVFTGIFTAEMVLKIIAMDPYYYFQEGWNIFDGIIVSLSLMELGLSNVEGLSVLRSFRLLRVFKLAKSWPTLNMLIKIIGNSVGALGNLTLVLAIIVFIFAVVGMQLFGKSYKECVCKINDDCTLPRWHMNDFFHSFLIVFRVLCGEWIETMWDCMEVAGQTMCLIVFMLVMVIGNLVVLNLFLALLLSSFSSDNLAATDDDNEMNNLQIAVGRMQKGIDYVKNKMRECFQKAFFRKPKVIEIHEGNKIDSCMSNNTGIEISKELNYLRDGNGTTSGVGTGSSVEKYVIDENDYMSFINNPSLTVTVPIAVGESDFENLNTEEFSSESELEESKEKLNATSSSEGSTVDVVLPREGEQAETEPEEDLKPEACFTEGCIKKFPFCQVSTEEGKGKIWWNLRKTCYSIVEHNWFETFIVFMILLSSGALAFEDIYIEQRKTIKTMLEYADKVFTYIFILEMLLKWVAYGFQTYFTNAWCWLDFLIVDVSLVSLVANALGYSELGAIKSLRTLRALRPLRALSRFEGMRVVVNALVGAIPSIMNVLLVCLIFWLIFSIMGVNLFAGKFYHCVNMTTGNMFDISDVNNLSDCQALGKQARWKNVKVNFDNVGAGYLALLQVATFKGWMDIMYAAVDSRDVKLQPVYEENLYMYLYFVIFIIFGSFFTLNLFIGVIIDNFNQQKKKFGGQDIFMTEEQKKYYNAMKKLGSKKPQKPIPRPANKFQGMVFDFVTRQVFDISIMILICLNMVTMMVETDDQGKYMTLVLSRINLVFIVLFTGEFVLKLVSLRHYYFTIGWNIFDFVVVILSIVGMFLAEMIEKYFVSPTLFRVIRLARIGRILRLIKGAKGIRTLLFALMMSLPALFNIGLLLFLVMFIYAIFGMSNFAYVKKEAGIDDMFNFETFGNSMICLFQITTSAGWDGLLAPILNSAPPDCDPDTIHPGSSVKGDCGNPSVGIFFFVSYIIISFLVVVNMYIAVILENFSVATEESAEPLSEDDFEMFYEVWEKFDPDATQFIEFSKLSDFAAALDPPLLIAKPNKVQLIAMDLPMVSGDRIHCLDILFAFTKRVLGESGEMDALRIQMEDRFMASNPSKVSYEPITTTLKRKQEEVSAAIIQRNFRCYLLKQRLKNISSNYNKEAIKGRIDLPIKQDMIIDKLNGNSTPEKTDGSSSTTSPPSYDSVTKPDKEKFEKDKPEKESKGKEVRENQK
# assayExplanation: hSCN3A electrophysiology, Ionworks Quattro automated platform (Table C)
# Format: cell-based
# protocolConditions: 10 μM compound, read-out: SCN3A % INHIB HTS IWQ 10 μM
Some compounds, each annotated with its measured inhibition at 10 µM.
resultType: inhibition at 10 µM (%)

- COc1ccccc1CC1(NC(=O)c2ccc(S(=O)(=O)Nc3nccs3)cc2)CC1: 15.3
- CCc1ccc(C)nc1NC(=O)c1ccc(S(=O)(=O)Nc2nccs2)cc1: 1.55
- Cc1ncccc1OCC1CN(C(=O)c2ccc(S(=O)(=O)Nc3nccs3)cc2)CCO1 (stereo not drawn): 14.7
- O=C(N[C@@H]1CCC[C@@H]1c1ccccc1)c1ccc(S(=O)(=O)Nc2nccs2)cc1: 11.2
- O=C(c1ccc(S(=O)(=O)Nc2nccs2)cc1)N1CCC(Cc2ccccc2)C1 (stereo not drawn): 11.4
- CC(NC(=O)c1ccc(S(=O)(=O)Nc2nccs2)cc1)c1ccccc1Cl (stereo not drawn): 32
- N#Cc1cccc(OC2CCCN(C(=O)c3ccc(S(=O)(=O)Nc4nccs4)cc3)C2)c1 (stereo not drawn): 44.3
- Cc1ccc([C@H](C)NC(=O)c2ccc(S(=O)(=O)Nc3nccs3)cc2)cc1: -1.9
- O=C(c1ccc(S(=O)(=O)Nc2nccs2)cc1)N1CCCCCC1c1ccccn1 (stereo not drawn): 6.56
- O=C(N[C@H]1CCC[C@@H]1c1ccccc1)c1ccc(S(=O)(=O)Nc2nccs2)cc1: 13.1
- O=C(c1ccc(S(=O)(=O)Nc2nccs2)cc1)N1CCCCC1c1cccc(F)c1 (stereo not drawn): 21.8
- O=C(NCc1cccc(C(F)(F)F)c1)c1ccc(S(=O)(=O)Nc2nccs2)c(Cl)c1: 13.4
- CCC(NC(=O)c1ccc(S(=O)(=O)Nc2nccs2)cc1)c1ccc(F)cc1 (stereo not drawn): 31.5
- O=C(c1ccc(S(=O)(=O)Nc2nccs2)cc1)N1CCCC(COc2cc(F)cc(F)c2)C1 (stereo not drawn): 41.4
- O=C(N[C@@H]1CCC[C@@H]1c1cc(F)cc(F)c1)c1ccc(S(=O)(=O)Nc2nccs2)cc1: -1.66
- Cc1ccc(OCCNC(=O)c2ccc(S(=O)(=O)Nc3nccs3)cc2)cc1: 30.8
- COc1ccc(OC2CCCN(C(=O)c3ccc(S(=O)(=O)Nc4nccs4)cc3)C2)cc1 (stereo not drawn): 17.7
- Cc1cccc(CNC(=O)c2ccc(S(=O)(=O)Nc3nccs3)cc2)c1C: 63
- O=C(NC(CO)c1ccccc1Cl)c1ccc(S(=O)(=O)Nc2nccs2)cc1 (stereo not drawn): 2.53
- C[C@H]([C@@H](O)c1ccccc1)N(C)C(=O)c1ccc(S(=O)(=O)Nc2nccs2)cc1: 11.6
- O=C(c1ccc(S(=O)(=O)Nc2nccs2)cc1)N1CCCC1Cc1ccccc1 (stereo not drawn): 17.4
- O=C(c1ccc(S(=O)(=O)Nc2nccs2)cc1)N(Cc1ccccc1)[C@@H]1CCCC[C@@H]1CO: 13.9
- Cc1cc(C)nc(CC2CCCCCN2C(=O)c2ccc(S(=O)(=O)Nc3nccs3)cc2)c1 (stereo not drawn): -1.47
- CN(CC(O)c1ccccc1)C(=O)c1ccc(S(=O)(=O)Nc2nccs2)cc1 (stereo not drawn): 0.12
- O=C(NCC1(c2ccccc2)CCCC1)c1ccc(S(=O)(=O)Nc2nccs2)cc1: 30.2
- O=C(NC1(Cc2ccccc2Cl)CC1)c1ccc(S(=O)(=O)Nc2nccs2)cc1: 24.2
- O=C(c1ccc(S(=O)(=O)Nc2nccs2)cc1)N1CCCC1c1ccccc1F (stereo not drawn): 28.9
- Cc1cccc(CC2COCCN(C(=O)c3ccc(S(=O)(=O)Nc4nccs4)cc3)C2)n1 (stereo not drawn): -8.14
- O=C(NCc1cccc(Cl)c1)c1ccc(S(=O)(=O)Nc2nccs2)cc1: 56.3
- O=C(c1ccc(S(=O)(=O)Nc2nccs2)cc1)N1CCCC(COc2ccc(F)cc2)C1 (stereo not drawn): 14.8
- Cc1ccc(CNC(=O)c2ccc(S(=O)(=O)Nc3nccs3)cc2)cc1: 36.6
- O=C(c1ccccc1)C1CCCN(C(=O)c2ccc(S(=O)(=O)Nc3nccs3)cc2)C1 (stereo not drawn): 31.3
- COCCCOC1CCCN(C(=O)c2ccc(S(=O)(=O)Nc3nccs3)cc2)C1 (stereo not drawn): 10.5
